Please respond with reported pKd for every item in the list.
target: T1, human TLR3 extracellular domain (ECD) (human, UniProt O15455 24-703); assay: Biacore (data not shown)
T1 construct: amino acids 1-703 of human TLR3; the structural model covers residues 30-687; also called huTLR3 ECD; TLR3 ECD
pKd: −log10 of the molar value.

binder="mAb 11 (antibody, human IgG4 S228P, V domains shown, human IgG4 with S229P; also called candidate 11; Fab 11) VH: QVELQQSGPGLVKPSQTLSLTCAISGDSVSSNSAAWGWIRQSPGRGLEWLGIIQKRSKWYNNYAVSVKSRITINPDTSKNQFSLQLNSVTPEDTAVYYCARYSYPFYSIDYWGQGTLVTVSS VL: DIELTQPPSVSVAPGQTARISCSGDNIGSYYVHWYQQKPGQAPVLVIYEDSERPSGIPERFSGSNSGNTATLTISGTQAEDEADYYCSSYDEPNFNVFGGGTKLTVL" measuredresult="> 8.00"

Please find the next binder below.
Query: Which pKd reading was recorded for the binder mAb 9 (antibody, human IgG4 S228P, V domains shown, human IgG4 with S229P; also called candidate 9; Fab 9) VH: QVELQQSGPGLVKPSQTLSLTCAISGDSVSSNSAAWGWIRQSPGRGLEWLGIIQIRSKWYNDYALSVKSRITINPDTSKNQFSLQLNSVTPEDTAVYYCARYSYPFYSIDYWGQGTLVTVSS VL: DIELTQPPSVSVAPGQTARISCSGDNIGSYYVHWYQQKPGQAPVLVIYEDSERPSGIPERFSGSNSGNTATLTISGTQAEDEADYYCQSYDSQFSFGVFGGGTKLTVL ?
Response: > 8.00
